B1: 6YSE (parent)
chain: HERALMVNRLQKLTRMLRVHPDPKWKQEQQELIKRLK

variants of: B1; experiment: folding stability dG (cDNA display proteolysis); higher = more stable; details: PBS, room temperature
VALUE TYPE: folding stability dG (kcal/mol)
Numeric only. Scale: kcal/mol

Tell me measured folding stability dG for "R35I" please.
1.58

Look up and state reported folding stability dG for "V19Q"
1.41

Determine its reported folding stability dG: "K37Y"
1.74

Give recorded folding stability dG. "E28I"
1.05

For the variant "L5D" , report folding stability dG.
1

Please give measured folding stability dG of the following entry: "K12N"
1.01

For the variant "E31W" , report folding stability dG.
1.4

Read off the recorded folding stability dG for "R15L"
1.31

Retrieve folding stability dG measured for "Q11C" and print it.
2.24

Provide folding stability dG value for the following variant: "H1S"
1.5

Write down folding stability dG measured for item "R3A"
0.434

Entry "H1M" needs its folding stability dG filled in; supply it.
1.68

Tell me folding stability dG reported for "Q11G"
0.69

For the variant "V19W" , report folding stability dG.
1.21

Give the measured folding stability dG for "R35L"
1.73

Entry "R18E" needs its folding stability dG filled in; supply it.
0.715

Return folding stability dG for the following variant: "E28M"
0.854

Look up and report measured folding stability dG for this entry: "I33L"
1.17

Hello, please tell me recorded folding stability dG for this one: "K34D"
0.366

Annotate the variant "Q27R" with its measured folding stability dG.
1.23

Please give measured folding stability dG of the following entry: "M16F"
0.018

Quote folding stability dG reported for "M16I" please.
0.699

Look up and report measured folding stability dG for this entry: "R15F"
0.829

Respond only with folding stability dG recorded for "R3E"
0.651

Give reported folding stability dG value for "A4Q"
1.63

Give the reported value of folding stability dG for this record: "K24I"
1.32

Answer with the recorded folding stability dG of "L17Q" only.
-0.895

Tell me measured folding stability dG for "Q29I" please.
1.69

Return the recorded folding stability dG value; entry: "N8V"
1.77

Consider the variant "Q27S" . State its measured folding stability dG.
1.04

Report folding stability dG for "M6Q"
0.35

Return value of folding stability dG for input "R18I" , no commentary.
0.881

Query folding stability dG for "T14W"
0.988

Give folding stability dG for "M6G"
-0.19

Tell me folding stability dG reported for "V7F"
1.42

Quickly give me recorded folding stability dG for "K26F"
1.53

Give the value of folding stability dG reported for the following: "K26A"
0.85

Tell me folding stability dG reported for "R15I"
1.14

Supply measured folding stability dG of "E2I" in your reply.
1.4

Provide folding stability dG value for the following variant: "Q30I"
1.37

Answer with the recorded folding stability dG of "Q30T" only.
1.13

Please give the documented folding stability dG of "E2S"
1.09

Complete the entry with folding stability dG for "L10I"
0.954

// Input: "E31H" . Output its folding stability dG only.
0.812

Tell us which folding stability dG value is on record for "R35K"
1.51

// Input: "W25T" . Output its folding stability dG only.
0.731
